Tested on: OVCAR-5 ovarian
Test: NCI-60 one-dose screen, 48 h
Conditions: 10 µM unless noted
This is part of a sample that, as a whole, favours compounds with a hit. Of some 83,000 tested, about 20% had one in any assay. Calls of active or inactive are those of the source. The calls were made as follows: active = growth percent below 10; inactive = the rest.
Entry note: the call must match one of label 1 for active, label 0 for inactive

Hi, sorry to bother you, what did the test record for CN1C(=O)N(C)C2C1NN=c1s/c(=C\c3ccc(F)cc3)c(=O)n12 (stereo unspecified) ?
label 0

Can you look up the reported call for COc1ccc(-c2csc(NC(=O)CSc3nc(C)cc(=O)[nH]3)n2)cc1 for me?
label 0

What was the test verdict on CNc1nc2ncc(-c3c(C)noc3C)cc2n1Cc1ccccc1 ?
label 0

Look up the recorded call for CCOc1ccc(-c2cc(C3(S(=O)(=O)c4ccc(C)cc4)CC=CC3)on2)cc1 in this test.
label 0

Outcome? Clc1ccc2c(NCCCn3cnc4c(N5CCCC5)nc(Cl)nc43)ccnc2c1
label 0

Please share the test call associated with CCCCCCCCNc1ncnc2c1ncn2Cc1nnc2c3ccccc3c(Cl)nn12 .
label 0

Recorded call for COc1cc(C(=O)c2c(-c3ccccc3)oc3ccccc23)cc(OC)c1O ?
label 0

Field: outcome | Entry: Cc1cc2c(C(C)C)c(O)c(O)c(/C=N/O)c2c(O)c1-c1c(C)cc2c(C(C)C)c(O)c(O)c(/C=N/O)c2c1O
label 0

Kindly provide the recorded test outcome for the following molecule: CCN(CC)CCN1C(=O)c2c(c(C)c3c(oc4cc(OC)ccc43)c2C)C1=O
label 0

Look up the recorded call for CC(=O)OCC(=O)O[C@@H]1C[C@]2(C(C)C)O[C@@]1(C)[C@@H]1CC[C@@H](C)[C@H]1[C@@H]2OC(=O)/C=C/c1ccccc1 in this test.
label 0

How did this test come out for CC(=O)OCCOc1cc(Cl)c(Cl)cc1Cl ?
label 0

Would you mind telling me which call this test gave CCOC(=O)c1c(C)nc2c(c1N)C(=O)C(=O)N2CCc1ccc(OC)c(OC)c1 ?
label 0

What was the test verdict on CCCc1cc(CCC)n2nc(N)nc2n1 ?
label 0

Recorded test call requested for C1=C2CCCC3=Cc4ccccc4OC23Oc2ccccc21
label 0

Outcome? CC(=O)Oc1ccccc1C(=O)N(Cc1ccc2c(Cl)cc(Cl)c(O)c2n1)c1ccccc1
label 0

Hey, what did the test say about COc1ccc2c(c1)c(-c1nc(-c3cn(C)c4ccncc34)cs1)cn2C ?
label 1

# lookup: test call for C(=N\Nc1nnc2n1N=C(c1ccccc1)CS2)/c1ccc(OCc2ccccc2)cc1
label 0

For COc1cc(/C=C2\CN(S(=O)(=O)c3ccc(C)cc3)C/C(=C\c3cc(CN4CCCC4)c(O)c(OC)c3)C2=O)cc(CN2CCCC2)c1O , which call appears in the assay record?
label 1

Name the outcome recorded for N#Cc1nn(-c2ccccn2)c(N)c1C#N in the assay.
label 0

// param item: O=C(O)/C=C/c1cn(-c2ccccc2)nc1-c1ccc(F)cc1 ; yields the recorded call
label 0

# lookup: test call for N#C/C(=C/C=C/c1ccccc1)S(=O)c1ccccc1 (stereo unspecified)
label 1
